The reader will find reported binding relative to P54AR4-83v2 parent values listed item by item below.
subject.of.test: EGFR (form used in the assay not stated) (human, UniProt P00533 25-645, limits assumed)
assay.remarks: ELISA, NEM conjugate, 10 nM

binder: P54AR4-83v2 G51C, NEM conjugate (designed binder, not shown: small tags and cut ends, N-ethyl maleimide (NEM) on Cys 51) LPAPKNLVVSEVTEDSARLSWDDPWAFYESFLIQYQESEKVGEAIVLTVPCSERSYDLTGLKPGTEYTVSIYGVHNVYKDTNMRGLPLSAIFTT
unit: ratio
binding relative to P54AR4-83v2 parent: 0.88

binder: P54AR4-83v2 K40C, NEM conjugate (designed binder, not shown: small tags and cut ends, N-ethyl maleimide (NEM) on Cys 40) LPAPKNLVVSEVTEDSARLSWDDPWAFYESFLIQYQESECVGEAIVLTVPGSERSYDLTGLKPGTEYTVSIYGVHNVYKDTNMRGLPLSAIFTT
unit: ratio
binding relative to P54AR4-83v2 parent: 0.88

Cited source: patent US20210301025A1
